Each recorded value in this set is attributed to ChEMBL document CHEMBL2218924.

Entries and their residual activity values follow.
# Tgt: Rhodopsin kinase GRK7 (Homo sapiens) (UniProt Q8WTQ7)
# Sequence (Q8WTQ7 whole entry): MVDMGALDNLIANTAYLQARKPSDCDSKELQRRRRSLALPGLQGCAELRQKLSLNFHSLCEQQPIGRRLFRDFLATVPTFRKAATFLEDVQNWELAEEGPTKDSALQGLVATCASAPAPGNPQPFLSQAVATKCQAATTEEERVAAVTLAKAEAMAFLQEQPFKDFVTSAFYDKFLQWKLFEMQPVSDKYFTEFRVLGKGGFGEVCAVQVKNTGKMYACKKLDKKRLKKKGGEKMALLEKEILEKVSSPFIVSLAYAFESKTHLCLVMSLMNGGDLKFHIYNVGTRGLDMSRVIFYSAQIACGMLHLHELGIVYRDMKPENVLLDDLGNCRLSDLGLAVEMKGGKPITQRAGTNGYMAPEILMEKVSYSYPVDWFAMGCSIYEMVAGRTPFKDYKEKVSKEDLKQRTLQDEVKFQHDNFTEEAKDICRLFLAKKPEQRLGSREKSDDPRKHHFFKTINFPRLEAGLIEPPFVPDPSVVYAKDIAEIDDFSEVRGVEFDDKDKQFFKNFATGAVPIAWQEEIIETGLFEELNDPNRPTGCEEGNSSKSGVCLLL
# Cond: at 10 µM
Express your answer in %, writing the number without its unit.

Field: example entries. Status: answers known.
INSERT INTO measurements (compound, measured) VALUES
  ('c1ccc(-c2n[nH]c3c2oc2ccccc23)cc1', 64),
  ('Cc1ccc(S(=O)(=O)/C=C/C#N)cc1', 90),
  ('Cc1nc(-c2ccccc2)c(-c2ccncc2)o1', 103),
  ('Cn1cnc2cc3c(Nc4cccc(Br)c4)ncnc3cc21', 86);

O=C(O)c1ccc2c3c1cccc3c(=O)n1c3ccccc3nc21 has a reported residual activity of 80

Just so you know, measured residual activity for Cc1cncc2cccc(S(=O)(=O)N3CCCN(C(=O)CN)C[C@H]3C)c12 came out at 28

# residual activity of Cn1cc(/C=C2\C(=O)Nc3ccc(S(N)(=O)=O)cc32)c2ccccc21 = 6

Please fill in: residual activity reported for O=C1NC(=O)/C(=C/c2ccc3c(c2)OC(F)(F)O3)S1 = 93

* * *

# Tgt: Serine/threonine-protein kinase Sgk3 (Homo sapiens)
# Cond: at 10 µM
Recorded residual activity, one value per entry.
Write it as a number; the unit % goes unstated.

INSERT INTO results (smiles_structure, endpoint_label, measured) VALUES
  ('O=Nc1c(-c2c(O)[nH]c3ccccc23)[nH]c2ccccc12', 'residual activity', 56),
  ('Oc1ccc(Nc2nc(-c3ccc(Cl)cc3)cs2)cc1', 'residual activity', 134),
  ('CN(C)CCCn1cc(C2=C(c3c[nH]c4ccccc34)C(=O)NC2=O)c2ccccc21', 'residual activity', 65),
  ('O=c1c2ccccc2[nH]c(=S)n1CCN1CCC(=C(c2ccc(F)cc2)c2ccc(F)cc2)CC1', 'residual activity', 72),
  ('CC#CC(=O)Nc1cc2c(Nc3ccc(F)c(Cl)c3)ncnc2cn1', 'residual activity', 88),
  ('COc1cc2ncnc(Nc3ccc(NC(=O)c4ccccc4)cc3)c2cc1OC', 'residual activity', 91),
  ('O=C(O)c1ccc2c3c1cccc3c(=O)n1c3ccccc3nc21', 'residual activity', 83),
  ('Cc1ccc(S(=O)(=O)/C=C/C#N)cc1', 'residual activity', 81);

Documented residual activity of COc1ccc(S(=O)(=O)N(CCO)c2ccccc2CN(C)C/C=C/c2ccc(Cl)cc2)cc1 : 78

compound c1ccc(-c2n[nH]c3c2oc2ccccc23)cc1 , residual activity observed: 98

O=[N+]([O-])c1ccc(-c2nc(-c3ccc(F)cc3)c(-c3ccncc3)[nH]2)cc1 yielded residual activity of 95

Sample O=C1NC(=O)/C(=C/c2ccc3c(c2)OC(F)(F)O3)S1 ; residual activity observed: 108

* * *

# Tgt: Phosphorylase b kinase gamma catalytic chain, liver/testis isoform (Homo sapiens)
# Cond: at 1 µM
Recorded residual activity for the following compounds
// units = %; emit number, no label

These recorded examples may help you get a feel for the data.
INSERT INTO assay_data (smiles_structure, measured) VALUES
  ('COc1cc2ncnc(Nc3ccc(NC(=O)c4ccccc4)cc3)c2cc1OC', 101),
  ('CC[n+]1c(/C=C/N(C)c2ccccc2)n(-c2ccccc2)c2ccc(-c3nc4ccccc4s3)cc21', 93);

residual activity reported for this compound O=C(Nc1cccc(Nc2cc(Nc3cccc(C(F)(F)F)c3)ncn2)c1)C1CC1 : 86

* * *

# Tgt: Serine/threonine-protein kinase TAO2 (Homo sapiens)
# Cond: at 1 µM
Endpoint label: residual activity (%)
Form entry: value (%) — number only.

Examples from the recorded data:
INSERT INTO results (smiles_structure, endpoint_label, measured) VALUES
  ('CCN(CC)CCCCN1c2ccccc2Oc2ccc(Cl)cc21', 'residual activity', 100),
  ('CCC(=O)Nc1ccc2ncnc(Nc3cccc(Br)c3)c2c1', 'residual activity', 98),
  ('O=C1NC(=O)/C(=C/c2ccc3c(c2)OC(F)(F)O3)S1', 'residual activity', 113),
  ('O=C1NC(=O)c2cc(Nc3ccc(F)cc3)c(Nc3ccc(F)cc3)cc21', 'residual activity', 63),
  ('O=c1cc(-c2cccc3c2Sc2ccccc2S3)oc(N2CCOCC2)c1', 'residual activity', 93);

get_value(item= COc1cc2ncnc(Nc3ccc(O)c(Br)c3)c2cc1OC , readout=residual activity) returns 98

// recorded residual activity for Cn1cnc2cc3c(Nc4cccc(Br)c4)ncnc3cc21 : 98

Form: molecule = CO[C@H]1[C@@H](OC)C[C@H](C)[C@@H](OC)C2=CC(=O)C=C(NC(=O)/C(C)=C/C=C/[C@H](OC)[C@@H](OC(N)=O)/C(C)=C/[C@@H]1C)C2=O ; residual activity = 99

Lab book: residual activity of CO[C@@H]1[C@H](N(C)C(=O)c2ccccc2)C[C@H]2O[C@]1(C)n1c3ccccc3c3c4c(c5c6ccccc6n2c5c31)C(=O)NC4 noted as 83

What the record says about c1ccc(-c2n[nH]cc2-c2ccnc3ccccc23)nc1 : residual activity is 103

Record summary for CN(C)c1ccc(/C=C2\C(=O)Nc3ccccc32)cc1 : reported residual activity = 99

Noted for c1ccc(-c2n[nH]c3c2oc2ccccc23)cc1 : its residual activity reads 98

Input C[C@@H](N)[C@H]1CC[C@H](C(=O)Nc2ccncc2)CC1 . Output residual activity: 112

The recorded residual activity for O=Nc1c(-c2c(O)[nH]c3ccccc23)[nH]c2ccccc12 is 75

* * *

# Tgt: Ephrin type-A receptor 5 (Homo sapiens) (UniProt P54756)
# Sequence (P54756 whole entry): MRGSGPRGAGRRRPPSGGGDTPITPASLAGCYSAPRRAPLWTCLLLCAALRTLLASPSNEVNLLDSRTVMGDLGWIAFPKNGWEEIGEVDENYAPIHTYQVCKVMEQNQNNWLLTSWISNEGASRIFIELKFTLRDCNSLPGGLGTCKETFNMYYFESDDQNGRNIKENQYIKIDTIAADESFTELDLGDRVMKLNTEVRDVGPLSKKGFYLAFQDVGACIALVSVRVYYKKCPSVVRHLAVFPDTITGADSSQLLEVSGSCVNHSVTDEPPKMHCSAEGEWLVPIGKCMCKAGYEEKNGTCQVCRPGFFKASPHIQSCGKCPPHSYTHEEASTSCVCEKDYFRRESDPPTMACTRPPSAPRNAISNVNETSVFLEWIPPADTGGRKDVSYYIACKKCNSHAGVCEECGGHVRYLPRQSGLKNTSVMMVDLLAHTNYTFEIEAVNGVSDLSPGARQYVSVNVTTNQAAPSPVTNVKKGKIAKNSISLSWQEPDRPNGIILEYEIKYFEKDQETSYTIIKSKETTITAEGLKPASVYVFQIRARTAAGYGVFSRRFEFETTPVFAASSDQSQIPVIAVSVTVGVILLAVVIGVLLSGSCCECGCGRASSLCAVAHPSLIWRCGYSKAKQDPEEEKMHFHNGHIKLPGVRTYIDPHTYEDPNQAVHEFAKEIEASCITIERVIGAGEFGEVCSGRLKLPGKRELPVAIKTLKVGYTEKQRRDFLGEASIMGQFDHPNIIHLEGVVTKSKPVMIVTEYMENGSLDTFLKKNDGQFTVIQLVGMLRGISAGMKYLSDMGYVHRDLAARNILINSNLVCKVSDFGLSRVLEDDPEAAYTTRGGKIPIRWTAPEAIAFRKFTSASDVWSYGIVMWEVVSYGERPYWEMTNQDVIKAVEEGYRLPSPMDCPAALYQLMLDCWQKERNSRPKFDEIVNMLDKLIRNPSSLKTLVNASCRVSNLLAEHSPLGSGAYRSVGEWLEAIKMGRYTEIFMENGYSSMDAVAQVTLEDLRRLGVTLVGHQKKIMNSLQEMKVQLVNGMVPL
# Cond: at 10 µM
Quick list: residual activity per entry.
State the answer as a number, implicitly in %.

Please review the following examples before continuing.
INSERT INTO assay_data (smiles_structure, tgt, endpoint_label, measured) VALUES
  ('O=C(Nc1cccc(Nc2nccc(Nc3cccc(C(F)(F)F)c3)n2)c1)C1CC1', 'Ephrin type-A receptor 5 (Homo sapiens) (UniProt P54756)', 'residual activity', 80),
  ('CCN(CC)CCCCN1c2ccccc2Oc2ccc(Cl)cc21', 'Ephrin type-A receptor 5 (Homo sapiens) (UniProt P54756)', 'residual activity', 113),
  ('O=C1NC(=O)/C(=C\c2ccc3nccnc3c2)S1', 'Ephrin type-A receptor 5 (Homo sapiens) (UniProt P54756)', 'residual activity', 101),
  ('CC(C)n1cnc2c(NCc3ccccc3)nc(NCCCO)nc21', 'Ephrin type-A receptor 5 (Homo sapiens) (UniProt P54756)', 'residual activity', 84);

Switching to the query record.
Observed residual activity on Ephrin type-A receptor 5 (Homo sapiens) (UniProt P54756), entry Ic1cccc(CSc2nnc(-c3ccncc3)o2)c1 , equals 99

* * *

# Tgt: Proto-oncogene tyrosine-protein kinase ROS (Homo sapiens) (UniProt P08922)
# Sequence (P08922 whole entry): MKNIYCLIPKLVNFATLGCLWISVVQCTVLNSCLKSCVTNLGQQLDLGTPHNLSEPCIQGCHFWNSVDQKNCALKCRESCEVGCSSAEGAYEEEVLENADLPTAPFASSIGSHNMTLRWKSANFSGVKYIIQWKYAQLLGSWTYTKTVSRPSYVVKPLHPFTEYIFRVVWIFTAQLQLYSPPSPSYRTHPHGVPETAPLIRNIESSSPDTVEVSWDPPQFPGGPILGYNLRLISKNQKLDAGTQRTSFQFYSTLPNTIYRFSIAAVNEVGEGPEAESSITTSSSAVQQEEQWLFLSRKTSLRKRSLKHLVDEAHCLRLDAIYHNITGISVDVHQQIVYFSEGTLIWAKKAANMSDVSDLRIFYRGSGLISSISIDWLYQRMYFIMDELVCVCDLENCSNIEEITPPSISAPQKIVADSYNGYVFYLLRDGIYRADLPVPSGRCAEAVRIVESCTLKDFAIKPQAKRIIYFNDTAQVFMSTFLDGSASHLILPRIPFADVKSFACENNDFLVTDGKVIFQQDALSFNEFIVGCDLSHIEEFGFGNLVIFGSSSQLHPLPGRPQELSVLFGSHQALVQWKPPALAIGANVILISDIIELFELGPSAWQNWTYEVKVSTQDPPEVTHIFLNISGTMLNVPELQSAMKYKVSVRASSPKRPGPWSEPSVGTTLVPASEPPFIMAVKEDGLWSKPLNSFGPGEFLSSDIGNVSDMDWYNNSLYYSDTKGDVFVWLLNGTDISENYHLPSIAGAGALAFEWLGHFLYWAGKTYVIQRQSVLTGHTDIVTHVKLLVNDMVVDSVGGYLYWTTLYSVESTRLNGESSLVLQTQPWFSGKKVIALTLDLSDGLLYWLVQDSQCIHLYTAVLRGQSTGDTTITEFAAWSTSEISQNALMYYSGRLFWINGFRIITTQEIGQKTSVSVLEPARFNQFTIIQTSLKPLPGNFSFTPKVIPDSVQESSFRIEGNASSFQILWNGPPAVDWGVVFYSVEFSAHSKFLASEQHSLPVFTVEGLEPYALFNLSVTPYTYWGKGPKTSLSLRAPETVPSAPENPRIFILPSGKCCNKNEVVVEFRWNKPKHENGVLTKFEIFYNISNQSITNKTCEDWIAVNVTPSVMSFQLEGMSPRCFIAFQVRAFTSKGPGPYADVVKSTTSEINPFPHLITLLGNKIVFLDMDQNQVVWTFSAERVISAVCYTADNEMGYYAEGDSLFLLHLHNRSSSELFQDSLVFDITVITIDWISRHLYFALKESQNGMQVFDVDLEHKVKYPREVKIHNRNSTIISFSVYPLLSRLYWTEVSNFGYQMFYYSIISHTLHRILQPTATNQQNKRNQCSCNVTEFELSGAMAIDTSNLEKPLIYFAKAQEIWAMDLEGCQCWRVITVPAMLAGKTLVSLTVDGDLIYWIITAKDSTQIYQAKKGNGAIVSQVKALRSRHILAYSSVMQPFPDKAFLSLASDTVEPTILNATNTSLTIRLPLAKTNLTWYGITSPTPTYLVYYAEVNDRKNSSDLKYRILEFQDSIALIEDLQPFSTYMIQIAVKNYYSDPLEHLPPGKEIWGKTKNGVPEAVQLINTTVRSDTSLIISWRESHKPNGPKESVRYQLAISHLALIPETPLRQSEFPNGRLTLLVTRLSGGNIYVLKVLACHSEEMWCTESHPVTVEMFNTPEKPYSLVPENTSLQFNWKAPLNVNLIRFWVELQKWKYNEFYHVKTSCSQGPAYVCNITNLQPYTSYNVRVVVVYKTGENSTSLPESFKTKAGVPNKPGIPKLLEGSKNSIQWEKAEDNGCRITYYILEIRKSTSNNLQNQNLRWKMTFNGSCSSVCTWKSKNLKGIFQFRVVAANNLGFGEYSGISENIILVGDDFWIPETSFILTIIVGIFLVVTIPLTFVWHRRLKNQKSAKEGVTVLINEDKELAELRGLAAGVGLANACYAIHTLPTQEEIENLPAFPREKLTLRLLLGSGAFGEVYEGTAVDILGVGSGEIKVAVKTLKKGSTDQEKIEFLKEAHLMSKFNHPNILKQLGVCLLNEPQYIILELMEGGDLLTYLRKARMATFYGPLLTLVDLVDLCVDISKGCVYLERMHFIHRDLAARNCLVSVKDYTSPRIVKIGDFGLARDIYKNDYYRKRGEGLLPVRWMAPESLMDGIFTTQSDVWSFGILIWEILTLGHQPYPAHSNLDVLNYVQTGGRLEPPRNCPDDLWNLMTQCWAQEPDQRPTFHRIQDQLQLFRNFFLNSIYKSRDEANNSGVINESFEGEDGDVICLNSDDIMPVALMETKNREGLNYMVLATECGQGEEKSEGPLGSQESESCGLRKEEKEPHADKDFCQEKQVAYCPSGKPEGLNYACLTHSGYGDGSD
# Cond: at 10 µM
Entries and their residual activity values follow.
Number in %, nothing else.

Example results:
INSERT INTO measurements (smiles_structure, measured) VALUES
  ('N#C/C(=C(\N)Sc1ccc(N)cc1)c1ccccc1C(F)(F)F', 89),
  ('COc1ccc(C(=O)Nc2sc3c(c2C(N)=O)CCCC3)cc1OC', 97),
  ('CC(=O)c1ccc(N2CCOCC2)cc1O', 98),
  ('O=C(Nc1cccc(Nc2cc(Nc3cccc(C(F)(F)F)c3)ncn2)c1)C1CC1', 88),
  ('CO[C@H]1[C@@H](OC)C[C@H](C)[C@@H](OC)C2=CC(=O)C=C(NC(=O)/C(C)=C/C=C/[C@H](OC)[C@@H](OC(N)=O)/C(C)=C/[C@@H]1C)C2=O', 94);

Per the record, Ic1cccc(CSc2nnc(-c3ccncc3)o2)c1 has residual activity of 75

# compound c1ccc(-c2n[nH]cc2-c2ccnc3ccccc23)nc1 ; its residual activity = 93

* * *

# Tgt: Discoidin domain-containing receptor 2 (Homo sapiens)
# Cond: at 1 µM
Endpoint label: residual activity

Please review the entries below; each comes with its answer.
INSERT INTO results (smiles_structure, endpoint_label, measured) VALUES
  ('O=[N+]([O-])c1ccc(-c2nc(-c3ccc(F)cc3)c(-c3ccncc3)[nH]2)cc1', 'residual activity', '77%'),
  ('O=c1c2ccccc2[nH]c(=S)n1CCN1CCC(=C(c2ccc(F)cc2)c2ccc(F)cc2)CC1', 'residual activity', '104%'),
  ('COc1ccc(S(=O)(=O)N(CCO)c2ccccc2CN(C)C/C=C/c2ccc(Cl)cc2)cc1', 'residual activity', '97%'),
  ('Cc1nc2cc3nc(-c4cccs4)cnc3cc2n1C', 'residual activity', '111%'),
  ('CO[C@H]1C[C@@H]2CC[C@@H](C)[C@@](O)(O2)C(=O)C(=O)N2CCCC[C@H]2C(=O)O[C@H]([C@H](C)C[C@@H]2CC[C@@H](O)[C@H](OC)C2)CC(=O)[C@H](C)/C=C(\C)[C@@H](O)[C@@H](OC)C(=O)[C@H](C)C[C@H](C)/C=C/C=C/C=C/1C', 'residual activity', '115%');

Recorded residual activity for CC(C)n1cnc2c(NCc3ccccc3)nc(NCCCO)nc21 on Discoidin domain-containing receptor 2 (Homo sapiens) was 87%

Item NC(=O)c1ccc2[nH]c(-c3ccc(Oc4ccc(Cl)cc4)cc3)nc2c1 ; assay system Discoidin domain-containing receptor 2 (Homo sapiens); residual activity reported as 98%
